target: T1, human serum albumin (human, UniProt P02768 25-609); assay: SPR, albumin immobilized;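 note: biacore SPR with human, rhesus or mouse serum albumin amine-coupled to the chip (about 1200 RU), 3 min association, 6-10 min dissociation, reference-subtracted traces fitted with a 1:1 model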
T1 construct: immobilized on chips or coated on plates elsewhere; also called HSA; HuSA
measure: koff (s⁻¹)
The answer is to be given in s⁻¹; state only the numeric part.

[ask] Look up and state reported koff for PCSK9-PKE2 tandem 4472_E06 (designed binder, The real molecule is ONE polypeptide: PCSK9 domain, undisclosed linker I (a code letter), PKE2 domain. It is given here as two chains because the linker letters are unknown., also called 4427_E06; not shown: The inter-domain linker) PCSK9 domain: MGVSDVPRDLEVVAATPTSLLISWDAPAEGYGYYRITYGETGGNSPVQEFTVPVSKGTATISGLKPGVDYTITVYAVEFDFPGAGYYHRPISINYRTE PKE2 domain: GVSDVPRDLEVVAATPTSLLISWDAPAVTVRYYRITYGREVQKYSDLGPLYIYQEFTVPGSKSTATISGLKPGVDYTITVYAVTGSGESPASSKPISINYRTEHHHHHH
[reply] 0.000362
